Test system: Tyrosine-protein kinase ABL1 (Homo sapiens), P00519 [Y253F]
setup_conditions: at 1 µM
Give measured inhibition for each item. Keep answers brief.
Quick note: give the figure in %, leave out the unit.

The measured inhibition associated with `CCc1nccc2c1nc(-c1nonc1N)n2CC` reads 2.26

The measured inhibition associated with `CCc1cccc(CC)c1/C=C/c1cncc(C(=O)NC)c1` reads 22.2

The measured inhibition associated with `COC(=O)Nc1nc2ccc(Sc3ccc(NC(=O)Nc4cc(C(F)(F)F)ccc4F)cc3)cc2[nH]1` reads 31.3

The measured inhibition associated with `c1ccc(Oc2ccc(Nc3ncc(-c4ccccc4)o3)cc2)cc1` reads 3.65

The measured inhibition associated with `N#Cc1ccc(Oc2nccc(-c3c(-c4ccc(F)cc4)ncn3C3CCNCC3)n2)cc1` reads 5.93

The measured inhibition associated with `COc1cc(C)c(N(C)C(=O)CN(C)C)cc1Nc1nc(Nc2cccc(F)c2C(N)=O)c2cc[nH]c2n1` reads 1.33

The measured inhibition associated with Nc1nccc(-c2c(-c3ccc(F)cc3)ncn2C2CCC(O)CC2)n1 (stereo not drawn) reads 24.4

The measured inhibition associated with `O=C(Nc1ccc(Oc2ccc3[nH]c(NC(=O)c4ccccc4)nc3c2)cc1)Nc1cc(C(F)(F)F)ccc1F` reads 51.8
